Assay: Solubility of the solid form (Form F) of Compound A
Format: physicochemical
Details: pH 6.8 buffer, pH 6.8, aqueous buffer
ENDPOINT_LABEL: solubility

[
  {
    "CHEMICAL_SMILES": "O=C1CCc2c(Oc3ccc4c(c3)[C@H]3[C@H](NC(=O)Nc5cc(F)c(F)cc5F)[C@H]3O4)ccnc2N1",
    "RESULT": "< 5 µg/mL"
  }
]

###

Experiment: Solubility of the solid form (Form F) of Compound A
Type: physicochemical
Settings: 0.1N HCl, simulated gastric fluid; in 0.1N HCI

[
  {
    "COMPOUND": "O=C1CCc2c(Oc3ccc4c(c3)[C@H]3[C@H](NC(=O)Nc5cc(F)c(F)cc5F)[C@H]3O4)ccnc2N1 [Compound A]",
    "solubility / µg/mL": 240
  }
]

Just for reference, patent US20250221970A1 is where these values come from.
